These data points were gathered from paper PMC3658134.

test target: Sec597Cys SmTGR (Schistosoma mansoni, UniProt Q962Y6)
test description: Inhibition of TrxR activity of Sec597Cys
Format: biochemical
outcome measure: IC50 (nM)
Give the quantity in nM, number only.

// IC50 value for N#Cc1c(-c2ccccc2)no[n+]1[O-] : 2100

----------
test target: Sec597Cys SmTGR (Schistosoma mansoni, UniProt Q962Y6)
test description: Inhibition of DTNB activity of Sec597Cys
Format: biochemical
outcome measure: pIC50
Remember, pIC50 is on a log scale: it is -log10 of the molar concentration.

Per the records, this compound ( N#Cc1c(-c2ccccc2)no[n+]1[O-] [Fx] ) has pIC50 equal to 5.22

----------
test target: WT SmTGR (Schistosoma mansoni, UniProt Q962Y6)
test description: Inhibition of TrxR activity of WT SmTGR
Format: biochemical
outcome measure: IC50 (µM)
Give just the number in µM; leave the unit off.

Value of measured IC50 for the entry N#Cc1c(-c2ccccc2)no[n+]1[O-] : 5.4

----------
test target: Sec597Cys SmTGR (Schistosoma mansoni, UniProt Q962Y6)
test description: Substrate specificity, NADPH consumption, Sec597Cys
Format: biochemical
applied conditions: Sec597Cys 100 or 150 nM, 100 μM NADPH; ND = undetectable activity
Below, each of the compounds is paired with its reported Km value.
Give the number; mM is assumed, so skip it.

Below, each entry is followed by its recorded Km result.
The compound identified as OO [H2O2, hydrogen peroxide] registered its Km at 52.4

Sample O=C1NC(=O)C(=O)C(=O)N1 [Alloxan, alloxan] ; Km observed: 0.88

Summary for this compound, CC(C)(C)OO [t-Butyl-OOH, tert-butyl hydroperoxide] : Km is 53

New cases:
The reported Km of the compound O=C(O)CCCC[C@@H]1CCSS1 (racemic) [Lipoic acid, lipoic acid] was 9.3

----------
test target: Sec597Cys SmTGR (Schistosoma mansoni)
test description: Inhibition of GR activity of Sec597Cys
Format: biochemical
outcome measure: pIC50
Entry type: numeric. Quantity: pIC50, the -log10 of concentration in molar units.

# pIC50 of N#Cc1c(-c2ccccc2)no[n+]1[O-] = 5.60

----------
test target: WT SmTGR (Schistosoma mansoni, UniProt Q962Y6)
test description: Inhibition of GR activity of WT SmTGR
Format: biochemical
outcome measure: IC50

Entry N#Cc1c(-c2ccccc2)no[n+]1[O-] ; IC50 = 3.2 µM
